Quick reference for composite z-score among some compounds
test: small-molecule microarray binders of probe aWnt5a, primary screen, biochemical, biotinylated probe, 635/667 nm fluorescence (AID 1113); conditions: higher = more signal;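 also: score merges 667 nm fluorescence intensity with signal-to-noise per printed feature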
Answer with a number only.

Ask: Give the measured composite z-score of COCCOC(=O)N1C(=O)[C@@]2(c3cc(C#CCCO)ccc31)[C@H](c1ccccc1OCCO)N1[C@H](c3ccccc3)[C@H](c3ccccc3)OC(=O)[C@H]1[C@@H]2C(=O)N1CCN(c2ncccn2)CC1 .
Result: 0.203

Ask: Can you share its composite z-score? I mean this compound: C=C(CCCC)C(=O)CC[C@H](OC(=O)c1cccnc1)c1cccc(OCCO)c1
Result: -0.0107

Ask: Find the recorded composite z-score belonging to [N-]=[N+]=Nc1ccccc1[C@H]1OC(c2ccc(OCCCO)cc2)=N[C@@]1(CCS(=O)(=O)c1ccccc1)C(=O)O and report it.
Result: -0.131

Ask: composite z-score for CC(C)(C)OC(=O)CC[C@@]1(C(=O)NCCN2CCOCC2)N=C(c2ccc(OCCCO)cc2)O[C@@H]1c1ccccc1 ?
Result: 0.0095

###

assay: inhibitors of hydroxyurea-induced Chk1 phosphorylation, primary screen, imaging, HeLa, phospho-Chk1 antibody, percent positive cells (AID 1186); details: hydroxyurea-induced phospho-Chk1 immunofluorescence imaging, higher = more signal
QUANTITY MEASURED: z-score
Just the number.

Example entries and their recorded answers appear below.
MOLECULE	RESULT NUMBER
COCCOC(=O)N1C(=O)[C@@]2(c3cc(C#CC4=CCCCC4)ccc31)[C@H](C(=O)N1CCc3cc(OC)c(OC)cc3C1)[C@H]1C(=O)O[C@H](c3ccccc3)[C@H](c3ccccc3)N1[C@@H]2c1ccccc1OCCO	-0.0513
CC(C)CNC(=O)[C@@H]1c2ccccc2C(=O)N(Cc2cc(C(F)(F)F)cc(C(F)(F)F)c2)[C@H]1c1ccc(CO)cc1	-0.236
N[C@@H](Cc1ccccc1)Cn1cc(-c2ccccc2)nn1	0.201
O=C1OCCC=C[C@H]2OC34C=CCN(c5ccc6ccccc6c5)C(=O)[C@H]3N(CCCCCO)C(=O)[C@@H]4C12 (some centres not stated)	-0.202
COc1c(C)cc(-c2cc3c(c(-c4ccc(Oc5ccccc5)cc4)n2)[Si](C(C)C)(C(C)C)OC3)cc1C	0.621

Ask: Item under review: Cc1ccc([C@H]2[C@H](C(=O)O)[C@H](Sc3ccccc3)[C@@H](C(C)C)N2S(=O)(=O)c2ccc(C)cc2)cc1 . Reported z-score?
Result: 0.237

Ask: Look at this molecule and give its reported z-score. CCOC(=O)[C@H]1C/C=C/C[C@H](C(=O)OCC)C(=O)O[C@H]2[C@@H](OC)O[C@H](CO)[C@@H](OC(=O)Nc3ccc4c(c3)OCO4)[C@@H]2OC1=O
Result: -0.18

###

In this section, each of the molecules is paired with its reported composite z-score.
tested on: Plasmodium falciparum Sir2 (PF13_0152, Sir2A); assay: pfSir2 binders on small-molecule microarrays, primary screen, biochemical, small-molecule microarray, 635 nm fluorescence (AID 1098); settings: small-molecule microarray binding, fluorescence 635 nm; higher = more signal;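 also: score merges spot fluorescence intensity with its signal-to-noise ratio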
Just the number, please, no unit attached.

Study these solved cases before continuing.
MOLECULE	composite z-score
CC(C)OC(=O)CC(=O)CC(O)c1ccc(C#N)cc1 (configuration not stated)	-0.165
CCOC(=O)C[C@H]1[C@H](OC(=O)c2ccc(-c3ccccc3)cc2)[C@@H](NC(=O)c2ccc(-c3ccccc3)cc2)c2cc(OCCCO)ccc2N1C(=O)Cc1ccc(OC)cc1	-0.253
CC(C)CNC(=O)[C@@H]1c2ccccc2C(=O)N(Cc2cc(C(F)(F)F)cc(C(F)(F)F)c2)[C@H]1c1ccc(CO)cc1	-0.46
C=CCC(OC(C)=O)[C@@H]1[C@@H](N(Cc2cccc3ccccc23)C(=O)c2ccc(C)cc2)c2cc(OCCCO)ccc2N1C(=O)Cc1ccc(OC)cc1 (some centres not stated)	0.102
COc1c(C)cc(-c2cc3c(c(-c4ccc(Oc5ccccc5)cc4)n2)[Si](C(C)C)(C(C)C)OC3)cc1C	-0.486

Ask: I have this molecule here, CC(C)CNC(=O)[C@@]1(c2ccc([N+](=O)[O-])cc2)CC(=O)N(CC23CC4CC(CC(C4)C2)C3)[C@@H]1c1ccc(CO)cc1 , and I need its recorded composite z-score.
Result: 0.947

Ask: Tell me the measured composite z-score of COc1ccc(NN2C(C(O)c3ccc(OC)c(OCc4ccccc4)c3)C=CC3C(=O)N(C4CCCCC4)C(=O)C32)cc1 (configuration not stated) , please.
Result: 0.897
